target: JNK3(h) (Homo sapiens, UniProt P53779); assay: Kinase Profiling Assay; assay type: biochemical; conditions: 100 μM
Sequence (P53779 whole entry): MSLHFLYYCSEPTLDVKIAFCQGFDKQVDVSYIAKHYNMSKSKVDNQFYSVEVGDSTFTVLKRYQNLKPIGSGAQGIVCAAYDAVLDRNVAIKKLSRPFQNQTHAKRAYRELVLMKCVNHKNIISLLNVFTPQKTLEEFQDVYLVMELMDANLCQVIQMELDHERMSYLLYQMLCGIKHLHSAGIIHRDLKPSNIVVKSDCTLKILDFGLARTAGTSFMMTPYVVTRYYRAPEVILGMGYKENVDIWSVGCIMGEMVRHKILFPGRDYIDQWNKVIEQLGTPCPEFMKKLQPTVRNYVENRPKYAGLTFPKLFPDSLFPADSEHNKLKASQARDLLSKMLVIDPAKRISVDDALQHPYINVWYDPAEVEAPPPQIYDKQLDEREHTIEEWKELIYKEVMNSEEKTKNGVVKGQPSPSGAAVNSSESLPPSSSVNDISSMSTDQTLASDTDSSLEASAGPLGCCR
Metric Name: % activity (%)
Field: numeric (%). Do not append units.

Some solved cases for reference:
Sequence Code	Result Unit	Result Value
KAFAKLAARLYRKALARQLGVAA [MMI-0400]	%	70
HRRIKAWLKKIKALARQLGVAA [MMI-0500]	%	171

[ask] Looking for the measured % activity of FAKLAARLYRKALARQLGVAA [MMI-0300] , can you help?
[reply] 89

[ask] Looking for the measured % activity of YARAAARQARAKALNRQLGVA [MMI-0200] , can you help?
[reply] 90

====

molecular target: Hck(h) activated (Homo sapiens); test: Kinase Profiling Assay; assay type: biochemical; settings: 100 μM
Sequence (P08631 whole entry): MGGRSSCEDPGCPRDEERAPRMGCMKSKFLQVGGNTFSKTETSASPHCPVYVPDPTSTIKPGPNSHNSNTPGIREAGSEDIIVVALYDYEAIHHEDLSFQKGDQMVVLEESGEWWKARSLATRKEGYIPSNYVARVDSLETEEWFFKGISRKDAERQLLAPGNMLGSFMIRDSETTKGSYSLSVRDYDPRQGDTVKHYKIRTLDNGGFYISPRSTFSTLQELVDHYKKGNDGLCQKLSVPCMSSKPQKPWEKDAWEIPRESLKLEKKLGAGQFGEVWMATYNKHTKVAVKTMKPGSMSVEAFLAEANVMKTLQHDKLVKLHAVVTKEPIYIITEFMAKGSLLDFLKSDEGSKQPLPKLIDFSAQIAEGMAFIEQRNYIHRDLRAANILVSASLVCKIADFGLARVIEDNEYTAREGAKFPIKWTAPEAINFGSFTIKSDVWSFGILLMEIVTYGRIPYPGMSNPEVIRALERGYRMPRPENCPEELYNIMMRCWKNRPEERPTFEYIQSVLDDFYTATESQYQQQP
Consider the following sequences and their measured % activity readings.
Field: numeric (%). Do not append units.

Some solved cases for reference:
Sequence Code	Metric Name	Result Unit	Result Value
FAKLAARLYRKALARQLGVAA [MMI-0300]	% activity	%	82
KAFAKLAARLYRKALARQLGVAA [MMI-0400]	% activity	%	81
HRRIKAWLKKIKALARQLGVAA [MMI-0500]	% activity	%	67

Please look at the following sequence next.
[ask] Looking for the measured % activity of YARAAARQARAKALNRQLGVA [MMI-0200] , can you help?
[reply] 100

====

target: MSK2(h) (Homo sapiens, UniProt O75676); experiment: Kinase Profiling Assay; format: biochemical; conditions: 100 μM
Sequence (O75676 whole entry): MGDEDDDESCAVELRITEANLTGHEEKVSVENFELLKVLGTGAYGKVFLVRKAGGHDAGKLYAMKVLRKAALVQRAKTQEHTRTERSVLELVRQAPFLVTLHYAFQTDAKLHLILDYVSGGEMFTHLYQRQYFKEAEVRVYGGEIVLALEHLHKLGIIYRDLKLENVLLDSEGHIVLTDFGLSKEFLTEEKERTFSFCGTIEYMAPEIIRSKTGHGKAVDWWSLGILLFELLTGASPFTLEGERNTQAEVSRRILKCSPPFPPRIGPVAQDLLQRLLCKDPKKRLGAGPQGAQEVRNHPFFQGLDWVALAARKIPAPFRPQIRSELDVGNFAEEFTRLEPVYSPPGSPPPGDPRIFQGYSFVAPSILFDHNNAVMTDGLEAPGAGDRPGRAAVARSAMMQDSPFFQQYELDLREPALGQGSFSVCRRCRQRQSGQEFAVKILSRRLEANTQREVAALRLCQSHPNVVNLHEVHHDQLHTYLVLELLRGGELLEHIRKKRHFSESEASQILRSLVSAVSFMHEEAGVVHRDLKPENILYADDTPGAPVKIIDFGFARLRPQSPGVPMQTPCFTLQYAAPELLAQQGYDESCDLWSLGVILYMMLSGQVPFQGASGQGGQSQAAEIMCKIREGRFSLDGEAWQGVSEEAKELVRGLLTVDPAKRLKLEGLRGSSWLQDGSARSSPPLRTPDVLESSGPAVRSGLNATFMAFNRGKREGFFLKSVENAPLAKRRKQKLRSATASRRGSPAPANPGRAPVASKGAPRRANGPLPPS
Metric Name: % activity (%)
Field: numeric (%). Do not append units.

Some solved cases for reference:
Sequence Code	Assayed Target	Result Value
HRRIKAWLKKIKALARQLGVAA [MMI-0500]	MSK2(h) (Homo sapiens, UniProt O75676)	14
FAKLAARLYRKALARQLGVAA [MMI-0300]	MSK2(h) (Homo sapiens, UniProt O75676)	56
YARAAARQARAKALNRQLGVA [MMI-0200]	MSK2(h) (Homo sapiens, UniProt O75676)	88

Please look at the following sequence next.
[ask] Looking for the measured % activity of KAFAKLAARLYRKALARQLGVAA [MMI-0400] , can you help?
[reply] 52

====

Biological target: PKCι(h) (Homo sapiens, UniProt P41743)
Sequence (P41743 1-596): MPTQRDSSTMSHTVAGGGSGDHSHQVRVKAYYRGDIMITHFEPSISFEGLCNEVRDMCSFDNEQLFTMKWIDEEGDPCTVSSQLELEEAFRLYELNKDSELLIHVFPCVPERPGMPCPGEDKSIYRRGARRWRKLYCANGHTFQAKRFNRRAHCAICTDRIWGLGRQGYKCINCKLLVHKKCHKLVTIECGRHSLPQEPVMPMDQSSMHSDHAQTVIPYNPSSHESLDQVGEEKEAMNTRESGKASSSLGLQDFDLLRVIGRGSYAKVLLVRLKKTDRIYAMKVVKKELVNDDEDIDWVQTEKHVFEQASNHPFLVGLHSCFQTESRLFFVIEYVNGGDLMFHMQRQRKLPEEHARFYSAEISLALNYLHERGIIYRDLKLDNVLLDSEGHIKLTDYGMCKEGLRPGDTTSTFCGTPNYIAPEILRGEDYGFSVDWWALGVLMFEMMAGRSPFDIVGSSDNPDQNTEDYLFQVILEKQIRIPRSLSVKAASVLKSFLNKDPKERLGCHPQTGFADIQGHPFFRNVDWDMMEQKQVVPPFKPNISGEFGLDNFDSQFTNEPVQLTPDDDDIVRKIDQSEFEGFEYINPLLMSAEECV
Test: Kinase Profiling Assay
Format: biochemical
Details: 100 μM
Metric Name: % activity
Report as: number unit

Sequence Code	Result Value
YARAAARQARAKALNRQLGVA [MMI-0200]	97%
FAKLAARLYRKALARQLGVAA [MMI-0300]	68%
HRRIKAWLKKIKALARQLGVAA [MMI-0500]	7%

[ask] Kindly state the measured % activity obtained for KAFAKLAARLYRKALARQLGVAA [MMI-0400] with PKCι(h) (Homo sapiens, UniProt P41743).
[reply] 46%
